The measurements presented in this section are drawn from patent US20230293599A1.

System: R. dentocariosa
Assay: Biolog Phenotype Microarray PM1-2 growth on carbon sources
Assay type: cell-based, Rothia dentocariosa
Conditions: 35 hours, absorbance 590 nm, n = 1; cells without values AUC < 50
Flag rule - AUC of growth curve, R. dentocariosa less than 400 flags Y; the remaining entries get N.

Recorded results for 8 molecules are shown here.
- molecule: "O=CC(=O)O"
  class-name: "Y"
- molecule: "O=C[C@H](O)[C@H](O)[C@@H](O)CO"
  class-name: "N"
- molecule: "O=C[C@H](O)[C@@H](O)[C@@H](O)[C@H](O)CO"
  class-name: "N"
- molecule: "C[C@H](O)[C@H](O)[C@@H](O)[C@@H](O)C=O"
  class-name: "Y"
- molecule: "OC[C@H]1O[C@H](O)[C@H](O)[C@@H](O)[C@@H]1O"
  class-name: "N"
- molecule: "O=C(O)CCC(=O)O"
  class-name: "Y"
- molecule: "OC[C@H]1O[C@H](O[C@H]2O[C@H](CO)[C@@H](O)[C@H](O)[C@H]2O)[C@H](O)[C@@H](O)[C@@H]1O"
  class-name: "N"
- molecule: "NC(=O)[C@@H](O)[C@@H](O)[C@H](O)[C@@H](O)C=O [Glucuronamide]"
  class-name: "Y"

Inquiry: Does "O=C[C@H](O)[C@@H](O)[C@@H](O)CO" have AUC of growth curve, R. dentocariosa strictly under 400?
Reply text: Y

Inquiry: Does "O=C(O)[C@@H]1CCCN1" have AUC of growth curve, R. dentocariosa strictly under 400?
Reply text: N
